# tgt: Sodium channel protein type 9 subunit alpha (Homo sapiens)
# testProtocol: Activation of human Nav1.7 expressed in HEK293 cells assessed as ratio of compound activation AUC to baseline activation AUC at 3.3 uM at -120 mV holding potential by Qpatch assay
# Assay type: cell-based
Non-standard residues stand in square brackets, D forms with d. Residues, ends and D or L forms follow the SMILES beside them. 2Nal = N[C@@H](Cc1ccc2ccccc2c1)C(=O)O
measuredProperty: Ratio AUC
Write the value as a bare number.

Query string: Request: Ratio AUC, test system Sodium channel protein type 9 subunit alpha (Homo sapiens), entry CC[C@H](C)[C@H](NC(=O)[C@H](CCCNC(=N)N)NC(=O)[C@@H](NC(=O)[C@@H](N)CCCNC(=N)N)[C@@H](C)CC)C(=O)NCC(=O)N[C@@H](CC(C)C)C(=O)N[C@@H](Cc1ccc2ccccc2c1)C(=O)N[C@@H](CC(=O)O)C(=O)N[C@@H](CCC(N)=O)C(=O)N[C@@H](CC(C)C)C(=O)N[C@@H](CC(C)C)C(=O)N[C@@H](CCCNC(=N)N)C(=O)N[C@@H](CC(C)C)C(N)=O (H-RIRIGL[2Nal]DQLLRL-NH2)
Result string: 9.6

====

# tgt: Sodium channel protein type 1 subunit alpha (Homo sapiens) (UniProt P35498)
# testProtocol: Activation of human Nav1.1 expressed in HEK293 cells assessed as ratio of compound activation AUC to baseline activation AUC at 1.11 uM at -120 mV holding potential by Qpatch assay
# Type: cell-based
Positions of bridges follow the written chain, without caps; N, C: chain ends. Residues, ends and D or L forms follow the SMILES beside them.
measuredProperty: Ratio AUC
API note: the answer field is a bare number with no unit suffix.

Query string: Which value of Ratio AUC has been reported for CC[C@H](C)[C@@H]1NC(=O)[C@@H](NC(=O)[C@@H](NC(=O)[C@@H](N)CCCNC(=N)N)[C@@H](C)CC)CSSC[C@@H](C(=O)N[C@@H](CCC(N)=O)C(=O)N[C@@H](CC(C)C)C(=O)N[C@@H](CO)C(=O)N[C@@H](CCCNC(=N)N)C(=O)N[C@@H](CC(C)C)C(N)=O)NC(=O)[C@H](Cc2ccccc2)NC(=O)[C@H](CC(C)C)NC(=O)CNC1=O (H-RICIGLFCQLSRL-NH2; disulfide 3-8) in the records?
Result string: 0.9

Query string: Then this compound: CC[C@H](C)[C@H](NC(=O)[C@H](CCCCN)NC(=O)[C@@H](NC(=O)[C@@H](N)CCCNC(=N)N)[C@@H](C)CC)C(=O)NCC(=O)N[C@@H](CC(C)C)C(=O)N[C@@H](Cc1ccccc1)C(=O)N[C@@H](CC(=O)O)C(=O)N[C@@H](CCC(N)=O)C(=O)N[C@@H](CC(C)C)C(=O)N[C@@H](CO)C(=O)N[C@@H](CCCNC(=N)N)C(=O)N[C@@H](CC(C)C)C(N)=O (H-RIKIGLFDQLSRL-NH2)
Result string: 1.1

---
Query string: Could you tell me which Ratio AUC is on file for CC[C@H](C)[C@H](NC(=O)[C@@H](N)CCCNC(=N)N)C(=O)N[C@@H](CCCCN)C(=O)N[C@H](C(=O)N1CCC[C@@H]1C(=O)N[C@@H](CC(C)C)C(=O)N[C@@H](Cc1ccccc1)C(=O)N[C@@H](CC(=O)O)C(=O)N[C@@H](CCC(N)=O)C(=O)N[C@@H](CC(C)C)C(=O)N[C@@H](CO)C(=O)N[C@@H](CCCNC(=N)N)C(=O)N[C@@H](CC(C)C)C(N)=O)[C@@H](C)CC ?
Result string: 1.1

====

# tgt: Sodium channel protein type 1 subunit alpha (Homo sapiens) (UniProt P35498)
# testProtocol: Activation of human Nav1.1 expressed in HEK293 cells assessed as ratio of compound activation AUC to baseline activation AUC at 0.37 uM at -120 mV holding potential by Qpatch assay
# Assay type: cell-based
Positions of bridges follow the written chain, without caps; N, C: chain ends. Non-standard residues stand in square brackets, D forms with d. Residues, ends and D or L forms follow the SMILES beside them. 2Nal = N[C@@H](Cc1ccc2ccccc2c1)C(=O)O
Parameter Ratio AUC: see the listing below.
In your answer, state the number alone without any accompanying words.

Consider the reported Ratio AUC for these compounds:
Query string: // returns reported Ratio AUC for input CC[C@H](C)[C@@H]1NC(=O)[C@@H](NC(=O)[C@@H](NC(=O)[C@@H](N)CCCNC(=N)N)[C@@H](C)CC)CSSC[C@@H](C(=O)N[C@@H](CCC(N)=O)C(=O)N[C@@H](CC(C)C)C(=O)N[C@@H](CO)C(=O)N[C@@H](CCCNC(=N)N)C(=O)N[C@@H](CC(C)C)C(N)=O)NC(=O)[C@H](Cc2ccccc2)NC(=O)[C@H](CC(C)C)NC(=O)CNC1=O (H-RICIGLFCQLSRL-NH2; disulfide 3-8)
Result string: 0.9

Query string: Now the same for CC[C@H](C)[C@H](NC(=O)[C@H](CCCNC(=N)N)NC(=O)[C@@H](NC(=O)[C@@H](N)CCCNC(=N)N)[C@@H](C)CC)C(=O)NCC(=O)N[C@@H](CC(C)C)C(=O)N[C@@H](Cc1ccc2ccccc2c1)C(=O)N[C@@H](CC(=O)O)C(=O)N[C@@H](CCC(N)=O)C(=O)N[C@@H](CC(C)C)C(=O)N[C@@H](CC(C)C)C(=O)N[C@@H](CCCNC(=N)N)C(=O)N[C@@H](CC(C)C)C(N)=O (H-RIRIGL[2Nal]DQLLRL-NH2)
Result string: 2.5

---
Query string: Given the entry CC[C@H](C)[C@H](NC(=O)[C@H](CC(=O)O)NC(=O)[C@@H](NC(=O)[C@@H](N)CCCNC(=N)N)[C@@H](C)CC)C(=O)NCC(=O)N[C@@H](CC(C)C)C(=O)N[C@@H](Cc1ccccc1)C(=O)N[C@@H](CCCCN)C(=O)N[C@@H](CCC(N)=O)C(=O)N[C@@H](CC(C)C)C(=O)N[C@@H](CO)C(=O)N[C@@H](CCCNC(=N)N)C(=O)N[C@@H](CC(C)C)C(N)=O (H-RIDIGLFKQLSRL-NH2) , report its measured Ratio AUC.
Result string: 1.1

Query string: Same thing, different compound: CC[C@H](C)[C@H](NC(=O)[C@H](CCCNC(=N)N)NC(=O)[C@@H](NC(=O)[C@@H](N)CCCNC(=N)N)[C@@H](C)CC)C(=O)NCC(=O)N[C@@H](CC(C)C)C(=O)N[C@@H](Cc1ccccc1)C(=O)N[C@@H](CC(=O)O)C(=O)N[C@@H](CCC(N)=O)C(=O)N[C@@H](CC(C)C)C(=O)N[C@@H](Cc1ccc(O)cc1)C(=O)N[C@@H](CCCNC(=N)N)C(=O)N[C@@H](CC(C)C)C(N)=O (H-RIRIGLFDQLYRL-NH2)
Result string: 1.1

Query string: Consider next the compound CC[C@H](C)[C@H](NC(=O)[C@H](CCCNC(=N)N)NC(=O)[C@@H](NC(=O)[C@@H](N)CCCNC(=N)N)[C@@H](C)CC)C(=O)NCC(=O)N[C@@H](CC(C)C)C(=O)N[C@@H](Cc1ccccc1)C(=O)N[C@@H](CC(=O)O)C(=O)N[C@@H](CCC(N)=O)C(=O)N[C@@H](CC(C)C)C(=O)N[C@@H](Cc1ccccc1)C(=O)N[C@@H](CCCNC(=N)N)C(=O)N[C@@H](CC(C)C)C(N)=O (H-RIRIGLFDQLFRL-NH2) in the same way.
Result string: 1.1

====

Entries and their Ratio AUC
# tgt: Sodium channel protein type 3 subunit alpha (Homo sapiens)
# testProtocol: Activation of human Nav1.3 expressed in CHOK1 cells assessed as ratio of compound activation AUC to baseline activation AUC at 3.3 uM at -120 mV holding potential by Qpatch assay
# Type: cell-based
Non-standard residues stand in square brackets, D forms with d. Residues, ends and D or L forms follow the SMILES beside them. 1Nal = N[C@@H](Cc1cccc2ccccc12)C(=O)O; 2Nal = N[C@@H](Cc1ccc2ccccc2c1)C(=O)O
Would you mind answering with just the numeric figure?

Example results:
Query string: Name the reported Ratio AUC value associated with the molecule CC[C@H](C)[C@H](NC(=O)[C@H](CCCCN)NC(=O)[C@@H](NC(=O)[C@@H](N)CCCNC(=N)N)[C@@H](C)CC)C(=O)NCC(=O)N[C@@H](CC(C)C)C(=O)N[C@@H](Cc1ccccc1)C(=O)N[C@@H](CC(=O)O)C(=O)N[C@@H](CCC(N)=O)C(=O)N[C@@H](CC(C)C)C(=O)N[C@@H](CO)C(=O)N[C@@H](CCCNC(=N)N)C(=O)N[C@@H](CC(C)C)C(N)=O (H-RIKIGLFDQLSRL-NH2)
Result string: 1.2

Query string: Follow-up item: CC[C@H](C)[C@H](NC(=O)[C@H](CCCNC(=N)N)NC(=O)[C@@H](NC(=O)[C@@H](N)CCCNC(=N)N)[C@@H](C)CC)C(=O)NCC(=O)N[C@@H](CC(C)C)C(=O)N[C@@H](Cc1ccc2ccccc2c1)C(=O)N[C@@H](CC(=O)O)C(=O)N[C@@H](CCC(N)=O)C(=O)N[C@@H](CC(C)C)C(=O)N[C@@H](CC(C)C)C(=O)N[C@@H](CCCNC(=N)N)C(=O)N[C@@H](CC(C)C)C(N)=O (H-RIRIGL[2Nal]DQLLRL-NH2)
Result string: 4.4

Query string: And what about the molecule CC[C@H](C)[C@H](NC(=O)[C@H](CCCCN)NC(=O)[C@@H](NC(=O)[C@@H](N)CCCNC(=N)N)[C@@H](C)CC)C(=O)NCC(=O)N[C@@H](CC(C)C)C(=O)N[C@@H](Cc1ccc2ccccc2c1)C(=O)N[C@@H](CC(=O)O)C(=O)N[C@@H](CCC(N)=O)C(=O)N[C@@H](CC(C)C)C(=O)N[C@@H](CO)C(=O)N[C@@H](CCCNC(=N)N)C(=O)N[C@@H](CC(C)C)C(N)=O (H-RIKIGL[2Nal]DQLSRL-NH2) ?
Result string: 1.9

Lab note: next molecule to report on.
Query string: What value of Ratio AUC has been reported for the following molecule? CC[C@H](C)[C@H](NC(=O)[C@H](CCCCN)NC(=O)[C@@H](NC(=O)[C@@H](N)CCCNC(=N)N)[C@@H](C)CC)C(=O)NCC(=O)N[C@@H](CC(C)C)C(=O)N[C@@H](Cc1cccc2ccccc12)C(=O)N[C@@H](CC(=O)O)C(=O)N[C@@H](CCC(N)=O)C(=O)N[C@@H](CC(C)C)C(=O)N[C@@H](CO)C(=O)N[C@@H](CCCNC(=N)N)C(=O)N[C@@H](CC(C)C)C(N)=O (H-RIKIGL[1Nal]DQLSRL-NH2)
Result string: 2
